pIC50 for Tyrosine-protein kinase Lyn (Homo sapiens, UniProt P07948) - collated from the literature.
pIC50: −log10 of the molar value.

In: Form field - read-out: pIC50; system: Tyrosine-protein kinase Lyn (Homo sapiens, UniProt P07948); submitted item: N#CN1C[C@H](n2nc(-c3ccc(Oc4ccc(F)cc4F)cc3)c(C(N)=O)c2N)CCC12CC2
Out: 6.00 to 7.00

In: Provide the documented pIC50 with Tyrosine-protein kinase Lyn (Homo sapiens, UniProt P07948) as the system for Cc1ccc(NC(=O)c2ccc(C)c(C(F)(F)F)c2)cc1C#Cc1nn([C@H]2CC[C@H](O)CC2)c2ncnc(N)c12
Out: 8.40

In: # get_value(readout= pIC50, system= Tyrosine-protein kinase Lyn (Homo sapiens, UniProt P07948)) for COc1cc(Nc2ncnc(-n3c(N)nc4ccccc43)n2)cc(OCCN2CCOCC2)c1OC
Out: > 6.09

In: Return pIC50 measured with Tyrosine-protein kinase Lyn (Homo sapiens, UniProt P07948) given this molecule: COc1cc(Nc2ncnc(-n3ccc4ccc(Cl)cc43)n2)cc(OC)c1OC
Out: 5.07 to 5.23
